# Test Target: ITK kinase domain (Homo sapiens, UniProt Q08881)
# Construct: N-terminally His-tagged ITK kinase domain (amino acids 352-617); His (N); made in house
# Experiment Summary: In vitro kinase assay (HITHUNTER enzyme fragment complementation), ITK
# Assay type: biochemical
# Assay Context: Table 5; read-out: IC50 ITK
pIC50: −log10 of the molar value.
Entries annotated with measured pIC50
Recorded Metric: pIC50

compound=CN(C)CCC(=O)c1ccc2ccccc2c1 recorded_metric=pIC50 readout_number=6.79
compound="O=C(CCN1CCc2ccccc2C1)c1ccc2ccccc2c1 [drawing 209]" recorded_metric=pIC50 readout_number=7.67
compound="CN(CCC(=O)c1ccc2ccccc2c1)Cc1ccccc1 [drawing 203]" recorded_metric=pIC50 readout_number=7.77
compound=NCC1CCN(CCC(=O)c2ccc3ccccc3c2)CC1 recorded_metric=pIC50 readout_number=7.07
compound=O=C(CCN1CCS(=O)(=O)CC1)c1ccc2ccccc2c1 recorded_metric=pIC50 readout_number=7.18
compound=O=C(CCN1CCC(CNC(=O)C(F)(F)F)CC1)c1ccc2ccccc2c1 recorded_metric=pIC50 readout_number=6.66

====

# Test Target: ITK kinase domain (Homo sapiens)
# Construct: N-terminally His-tagged ITK kinase domain (amino acids 352-617); His (N); made in house
# Sequence (Q08881 352-617): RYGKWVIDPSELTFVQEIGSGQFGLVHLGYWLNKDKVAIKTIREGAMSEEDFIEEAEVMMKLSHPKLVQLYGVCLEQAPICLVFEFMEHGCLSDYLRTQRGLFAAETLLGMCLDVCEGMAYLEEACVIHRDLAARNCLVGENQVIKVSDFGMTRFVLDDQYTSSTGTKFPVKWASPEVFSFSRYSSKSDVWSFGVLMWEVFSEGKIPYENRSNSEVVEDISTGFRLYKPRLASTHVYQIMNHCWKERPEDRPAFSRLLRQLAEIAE
# Experiment Summary: In vitro kinase assay (HITHUNTER enzyme fragment complementation), ITK
# Type: biochemical
# Assay Context: Table 3, naphthyl analog; read-out: IC50 ITK
Recorded Metric: IC50 (nM)

compound="COc1cc2c(cc1OC)CN(CCC(=O)c1ccc3ccccc3c1)CC2 [drawing 169]" readout_number=7
compound="O=C(CCN1CCOCC1)c1ccc2ccccc2c1 [drawing 167]" readout_number=20
compound="CN(C)C1CCN(CCC(=O)c2ccc3ccccc3c2)C1 (centres unmarked) [drawing 171]" readout_number=7
compound="CC(C)N(CCC(=O)c1ccc2ccccc2c1)C(C)C [drawing 179]" readout_number=9
compound="CN(C)C1CCN(CCC(=O)c2ccc3ccccc3c2)CC1 [drawing 177]" readout_number=9

====

# Test Target: BTK kinase domain (Homo sapiens)
# Construct: The kinase domains of BTK, LCK and ERK were expressed as recombinant purified proteins; made in house
# Sequence (Q06187 402-655 limits assumed): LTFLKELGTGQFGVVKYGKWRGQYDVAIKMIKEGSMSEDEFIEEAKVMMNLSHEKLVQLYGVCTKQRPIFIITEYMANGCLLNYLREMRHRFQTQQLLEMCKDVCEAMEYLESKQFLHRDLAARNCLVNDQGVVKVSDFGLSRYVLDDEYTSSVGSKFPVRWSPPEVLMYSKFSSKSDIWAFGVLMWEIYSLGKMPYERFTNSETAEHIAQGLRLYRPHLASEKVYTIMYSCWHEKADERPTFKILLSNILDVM
# Experiment Summary: In vitro kinase assay (HITHUNTER), BTK
# Type: biochemical
# Assay Context: Table 3, Compound
Entries annotated with measured IC50
Recorded Metric: IC50 (µM)

compound=CC(C)N(CCC(=O)c1ccc2c(c1)NC(=O)CO2)C(C)C test_target="BTK kinase domain (Homo sapiens)" recorded_metric=IC50 readout_number=0.544
compound="O=C1COc2ccc(C(=O)CCN3CCOCC3)cc2N1 [drawing 166]" test_target="BTK kinase domain (Homo sapiens)" recorded_metric=IC50 readout_number=0.781
compound="COc1cc2c(cc1OC)CN(CCC(=O)c1ccc3c(c1)NC(=O)CO3)CC2 [drawing 168]" test_target="BTK kinase domain (Homo sapiens)" recorded_metric=IC50 readout_number=0.276
compound="CN(C)C1CCN(CCC(=O)C2=CC3NC(=O)COC3C=C2)C1 (stereo not shown)" test_target="BTK kinase domain (Homo sapiens)" recorded_metric=IC50 readout_number=1.89
compound=CN(C)C1CCN(CCC(=O)c2ccc3c(c2)NC(=O)CO3)CC1 test_target="BTK kinase domain (Homo sapiens)" recorded_metric=IC50 readout_number=0.15
compound=CN(CCC(=O)c1ccc2c(c1)NC(=O)CO2)Cc1ccc(F)cc1 test_target="BTK kinase domain (Homo sapiens)" recorded_metric=IC50 readout_number=0.3
compound=CN(C)CCN1CCN(CCC(=O)c2ccc3c(c2)NC(=O)CO3)CC1 test_target="BTK kinase domain (Homo sapiens)" recorded_metric=IC50 readout_number=0.481

====

# Test Target: ITK kinase domain (Homo sapiens)
# Construct: N-terminally His-tagged ITK kinase domain (amino acids 352-617); His (N); made in house
# Experiment Summary: In vitro kinase assay (HITHUNTER enzyme fragment complementation), ITK
# Format: biochemical
# Assay Context: Table 2; read-out: IC50 ITK
Recorded Metric: IC50 (nM)

compound=O=C(CCN1CCOCC1)c1cccc(F)c1 unit_annotation=nM readout_number=381
compound=Cc1ccc(C(=O)CCN2CCOCC2)cc1 unit_annotation=nM readout_number=180
compound=O=C(CCN1CCOCC1)c1ccccc1Br unit_annotation=nM readout_number=305
compound=O=C(CCN1CCOCC1)c1cccc(Br)c1 unit_annotation=nM readout_number=25
compound=O=C(CCN1CCOCC1)c1ccc(F)c(F)c1 unit_annotation=nM readout_number=208
compound=O=C(CCN1CCOCC1)c1ccc(F)cc1C(F)(F)F unit_annotation=nM readout_number=468
compound=Cc1ccc(C(=O)CCN2CCOCC2)cc1C unit_annotation=nM readout_number=223
compound=CCOc1ccccc1C(=O)CCN1CCOCC1 unit_annotation=nM readout_number=1280
compound=O=C(CCN1CCOCC1)c1ccc(C(F)(F)F)cc1 unit_annotation=nM readout_number=199
compound=O=C(CCN1CCOCC1)c1cccc(Cl)c1 unit_annotation=nM readout_number=77
compound=N#Cc1cccc(C(=O)CCN2CCOCC2)c1 unit_annotation=nM readout_number=29
compound=O=C(CCN1CCOCC1)c1ccc2c(c1)OCCO2 unit_annotation=nM readout_number=96
compound=O=C(CCN1CCOCC1)c1cc(F)ccc1Cl unit_annotation=nM readout_number=935
compound=COc1ccc(C(=O)CCN2CCOCC2)c(OC)c1 unit_annotation=nM readout_number=345
compound="O=C(CCN1CCOCC1)c1ccc2ccccc2c1 [drawing 129]" unit_annotation=nM readout_number=36
compound=CS(=O)(=O)c1ccc(C(=O)CCN2CCOCC2)cc1 unit_annotation=nM readout_number=385
compound=COc1cc(OC)cc(C(=O)CCN2CCOCC2)c1 unit_annotation=nM readout_number=5
compound=O=C(CCN1CCOCC1)c1cc(F)ccc1F unit_annotation=nM readout_number=874
compound=CN(C)c1cccc(C(=O)CCN2CCOCC2)c1 unit_annotation=nM readout_number=186
compound=O=C(CCN1CCOCC1)c1ccc2c(c1)OCO2 unit_annotation=nM readout_number=385
compound=O=C(CCN1CCOCC1)c1cccc2ccccc12 unit_annotation=nM readout_number=65
compound="O=C1COc2ccc(C(=O)CCN3CCOCC3)cc2N1 [drawing 120]" unit_annotation=nM readout_number=40
compound=O=C(CCN1CCOCC1)c1ccc(OC(F)(F)F)cc1 unit_annotation=nM readout_number=219
compound=O=C(CCN1CCOCC1)c1c(Cl)cccc1Cl unit_annotation=nM readout_number=207
compound=O=C(CCN1CCOCC1)c1ccc(N2CCOCC2)cc1 unit_annotation=nM readout_number=1410
compound=O=C(CCN1CCOCC1)c1ccc(Cl)cc1 unit_annotation=nM readout_number=290
compound=O=C(CCN1CCOCC1)c1cccc(C(F)(F)F)c1 unit_annotation=nM readout_number=43

====

Entries annotated with measured pIC50
# Test Target: ITK kinase domain (Homo sapiens, UniProt Q08881)
# Construct: N-terminally His-tagged ITK kinase domain (amino acids 352-617); His (N); made in house
# Experiment Summary: In vitro kinase assay (HITHUNTER enzyme fragment complementation), ITK
# Format: biochemical
# Assay Context: Table 2; read-out: IC50 ITK
# Procedure: Compounds were screened using the HITHUNTER™ enzyme fragment complementation method (Discoverx). Briefly, a recombinantly produced, N-terminally His-tagged ITK kinase domain (amino acids 352-617) was incubated with various concentrations of individual compounds. ATP and substrate were added, and the kinase reaction was allowed to proceed for 2-16 hours. Commercially available detection reagents were added and allowed to react for 2-4 hours. The reaction was evaluated by luminescence. […]
pIC50: −log10 of the molar value.
Recorded Metric: pIC50

molecule=O=C(CCN1CCOCC1)c1ccc(Cl)c(Cl)c1 recorded_metric=pIC50 readout_number=7.89
molecule=COc1ccc(C(=O)CCN2CCOCC2)cc1[N+](=O)[O-] recorded_metric=pIC50 readout_number=7.70
molecule="O=C(CCN1CCOCC1)c1ccc(F)cc1 [drawing 122]" recorded_metric=pIC50 readout_number=7.89
molecule=O=C(CCN1CCOCC1)c1cccc(Oc2ccccc2)c1 recorded_metric=pIC50 readout_number=6.68
molecule=N#Cc1ccc(C(=O)CCN2CCOCC2)cc1 recorded_metric=pIC50 readout_number=7.14
molecule=Cc1cccc(C(=O)CCN2CCOCC2)c1 recorded_metric=pIC50 readout_number=6.25
molecule=Cc1ccc(C(=O)CCN2CCOCC2)c(C)c1 recorded_metric=pIC50 readout_number=6.41
molecule=O=C(CCN1CCOCC1)c1ccccc1C(F)(F)F recorded_metric=pIC50 readout_number=6.24
molecule=O=C(CCN1CCOCC1)c1cccc(OC(F)(F)F)c1 recorded_metric=pIC50 readout_number=6.83
molecule=O=C(CCN1CCOCC1)c1ccc(Br)cc1 recorded_metric=pIC50 readout_number=6.98
molecule=O=C(CCN1CCOCC1)c1ccc(-c2ccccc2)cc1 recorded_metric=pIC50 readout_number=7.40
molecule=Cc1ccccc1C(=O)CCN1CCOCC1 recorded_metric=pIC50 readout_number=6.21
molecule=COc1cccc(C(=O)CCN2CCOCC2)c1 recorded_metric=pIC50 readout_number=7.46
molecule=CC(=O)Nc1cccc(C(=O)CCN2CCOCC2)c1 recorded_metric=pIC50 readout_number=7.19
molecule=O=C(CCN1CCOCC1)c1ccc(Oc2ccccc2)cc1 recorded_metric=pIC50 readout_number=7.04
molecule=O=C(CCN1CCOCC1)c1ccc(F)cc1F recorded_metric=pIC50 readout_number=7.25
molecule="COc1ccc(C(=O)CCN2CCOCC2)cc1OC [drawing 124]" recorded_metric=pIC50 readout_number=7.85
